Kindly state Activity for each of the entries shown.
target: Neuronal acetylcholine receptor; alpha4/beta2 (Homo sapiens, UniProt P17787+P43681); assay: Agonist activity at recombinant human alpha-4-beta-2 nAChR expressed in HEK293 cells assessed as induction of calcium influx by FLIPR assay relative to nicotine; format: functional, cell-based
Sequence (P17787 whole entry): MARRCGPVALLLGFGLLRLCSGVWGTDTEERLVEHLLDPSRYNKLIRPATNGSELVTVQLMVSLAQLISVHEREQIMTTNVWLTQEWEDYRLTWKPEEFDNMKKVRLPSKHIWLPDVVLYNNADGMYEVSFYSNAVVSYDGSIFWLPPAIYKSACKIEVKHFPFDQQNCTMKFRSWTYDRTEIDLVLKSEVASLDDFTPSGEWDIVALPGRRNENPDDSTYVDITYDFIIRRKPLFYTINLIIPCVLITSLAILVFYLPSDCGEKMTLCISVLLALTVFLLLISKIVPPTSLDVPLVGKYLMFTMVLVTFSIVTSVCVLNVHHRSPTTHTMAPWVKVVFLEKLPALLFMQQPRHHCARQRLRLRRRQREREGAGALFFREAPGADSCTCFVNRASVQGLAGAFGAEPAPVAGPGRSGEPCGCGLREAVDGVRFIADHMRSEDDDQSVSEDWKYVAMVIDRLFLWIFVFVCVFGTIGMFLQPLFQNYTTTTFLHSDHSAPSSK
Sequence (P43681 whole entry): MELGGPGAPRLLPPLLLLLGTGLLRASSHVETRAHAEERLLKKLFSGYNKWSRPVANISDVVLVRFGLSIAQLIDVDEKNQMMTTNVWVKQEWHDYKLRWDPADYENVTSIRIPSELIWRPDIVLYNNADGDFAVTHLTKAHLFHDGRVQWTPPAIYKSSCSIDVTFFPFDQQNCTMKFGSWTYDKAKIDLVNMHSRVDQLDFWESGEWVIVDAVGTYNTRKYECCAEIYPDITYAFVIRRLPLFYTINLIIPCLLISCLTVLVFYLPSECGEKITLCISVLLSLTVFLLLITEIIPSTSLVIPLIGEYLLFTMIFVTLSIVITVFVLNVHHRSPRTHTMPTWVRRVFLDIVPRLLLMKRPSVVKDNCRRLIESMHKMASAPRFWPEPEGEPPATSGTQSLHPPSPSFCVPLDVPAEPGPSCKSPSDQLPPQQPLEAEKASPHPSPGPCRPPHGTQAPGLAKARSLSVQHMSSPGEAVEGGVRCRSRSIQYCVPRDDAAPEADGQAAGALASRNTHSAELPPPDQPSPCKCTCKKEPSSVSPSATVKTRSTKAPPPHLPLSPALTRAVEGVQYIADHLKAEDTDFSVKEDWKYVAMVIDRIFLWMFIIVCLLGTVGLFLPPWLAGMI
One number for each entry, in %.

Would you please look over these solved cases?
| Compound | Test system | Scale unit | Activity |
| --- | --- | --- | --- |
| N#Cc1cc(N2C[C@H]3CNC[C@H]32)cnc1Br | Neuronal acetylcholine receptor; alpha4/beta2 (Homo sapiens, UniProt P17787+P43681) | % | 100 |
| N#Cc1cc(N2C[C@@H]3CN[C@@H]3C2)cnc1Br | Neuronal acetylcholine receptor; alpha4/beta2 (Homo sapiens, UniProt P17787+P43681) | % | 146 |
| Cc1cc(N2C[C@H]3CNC[C@H]32)cnc1C | Neuronal acetylcholine receptor; alpha4/beta2 (Homo sapiens, UniProt P17787+P43681) | % | 85 |
| Clc1ccc(C2CC3CCC2N3)cn1 (stereo unspecified) [EPIBATIDINE] | Neuronal acetylcholine receptor; alpha4/beta2 (Homo sapiens, UniProt P17787+P43681) | % | 133 |
| NC(=O)c1cc(N2C[C@H]3CNC[C@H]32)cnc1Br | Neuronal acetylcholine receptor; alpha4/beta2 (Homo sapiens, UniProt P17787+P43681) | % | 155 |
| c1cncc(N2C[C@@H]3CNC[C@@H]32)c1 | Neuronal acetylcholine receptor; alpha4/beta2 (Homo sapiens, UniProt P17787+P43681) | % | 101 |

Go through the items and report each one's Activity.
1. Clc1cc(N2C[C@H]3CNC[C@H]32)cnc1Cl
2. COc1cncc(N2C[C@H]3CNC[C@H]32)c1
3. Clc1ccc(N2C[C@H]3CN[C@H]3C2)cn1
4. Clc1cc(N2C[C@@H]3CNC[C@@H]32)cnc1Cl

Reply:
1. 117
2. 90
3. 126
4. 110

---

target: Neuronal acetylcholine receptor; alpha3/beta4 (Homo sapiens, UniProt P30926+P32297); test: Agonist activity at recombinant human alpha3beta4 nAChR expressed in HEK293 cells assessed as induction of calcium influx by FLIPR assay relative to nicotine; type: functional, cell-based
Sequence (P30926 whole entry): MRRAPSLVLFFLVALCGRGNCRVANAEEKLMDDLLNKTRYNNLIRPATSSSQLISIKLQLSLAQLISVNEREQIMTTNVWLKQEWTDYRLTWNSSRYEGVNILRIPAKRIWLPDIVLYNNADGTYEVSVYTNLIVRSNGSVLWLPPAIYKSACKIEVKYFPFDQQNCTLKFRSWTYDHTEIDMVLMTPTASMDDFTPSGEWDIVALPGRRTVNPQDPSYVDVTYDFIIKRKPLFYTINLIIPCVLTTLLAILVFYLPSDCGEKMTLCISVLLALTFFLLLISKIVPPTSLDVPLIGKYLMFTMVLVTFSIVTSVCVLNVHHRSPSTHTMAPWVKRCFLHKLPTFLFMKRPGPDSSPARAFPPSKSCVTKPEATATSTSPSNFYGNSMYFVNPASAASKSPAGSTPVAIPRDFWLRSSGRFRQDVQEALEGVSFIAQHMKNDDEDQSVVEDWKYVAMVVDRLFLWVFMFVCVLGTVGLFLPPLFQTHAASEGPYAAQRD
Sequence (P32297 whole entry): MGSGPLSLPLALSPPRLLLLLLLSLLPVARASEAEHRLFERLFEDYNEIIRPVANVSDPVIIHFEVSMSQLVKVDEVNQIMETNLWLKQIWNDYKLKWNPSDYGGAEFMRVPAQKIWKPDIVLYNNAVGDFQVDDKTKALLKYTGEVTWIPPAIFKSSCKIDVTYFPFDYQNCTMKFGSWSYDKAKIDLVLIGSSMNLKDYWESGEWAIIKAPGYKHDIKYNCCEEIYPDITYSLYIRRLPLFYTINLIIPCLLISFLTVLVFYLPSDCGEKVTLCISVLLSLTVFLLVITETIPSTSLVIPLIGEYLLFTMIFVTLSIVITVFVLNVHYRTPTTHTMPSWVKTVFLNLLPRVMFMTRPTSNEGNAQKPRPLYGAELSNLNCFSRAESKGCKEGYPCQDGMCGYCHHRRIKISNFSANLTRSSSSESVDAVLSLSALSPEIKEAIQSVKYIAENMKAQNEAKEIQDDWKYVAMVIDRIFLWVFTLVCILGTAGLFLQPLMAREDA
Please mark 1 if the recorded Activity is equal to or greater than 90%, and -1 if it falls below.

Consider the worked cases shown below.
| Compound | Discrete label |
| --- | --- |
| N=C(NO)c1cncc(N2C[C@H]3CNC[C@H]32)c1 | -1 |
| COc1cc(N2C[C@H]3CNC[C@H]32)cnc1Br | 1 |
| Brc1cncc(N2C[C@H]3CN[C@H]3C2)c1 | 1 |
| Clc1ccc(C2CC3CCC2N3)cn1 (stereo not drawn) [EPIBATIDINE] | 1 |
| Brc1cncc(N2C[C@H]3CNC[C@H]32)c1 | -1 |

Ask: Is the recorded value of Activity equal to or greater than 90% for this compound? C#Cc1cncc(N2C[C@H]3CNC[C@H]32)c1
Reply: -1

Ask: Is the recorded value of Activity equal to or greater than 90% for this compound? N#Cc1cncc(N2C[C@@H]3CNC[C@@H]32)c1
Reply: -1

---

Kindly state Activity for each of the entries shown.
molecular target: Neuronal acetylcholine receptor; alpha4/beta2 (Homo sapiens, UniProt P17787+P43681); experiment: Agonist activity at recombinant human alpha-4-beta-2 nAChR expressed in HEK293 cells assessed as induction of calcium influx by FLIPR assay relative to nicotine; assay type: functional, cell-based
One number for each entry, in %.

| Smiles structure | Activity, % |
| --- | --- |
| Clc1cncc(N2C[C@H]3CNC[C@H]32)c1 | 88 |
| Cc1ncc(N2C[C@@H]3CNC[C@@H]32)cc1C#N | 116 |
| N=C(NO)c1cncc(N2C[C@H]3CNC[C@H]32)c1 | 76 |
| CN1CCC[C@H]1c1cccnc1 | 101 |
| Clc1cc(N2C[C@@H]3CN[C@@H]3C2)cnc1Cl | 110 |
| Clc1ccc(N2C[C@@H]3CN[C@@H]3C2)cn1 | 162 |
| C#Cc1cncc(N2C[C@H]3CNC[C@H]32)c1 | 77 |
| Cc1cc(N2C[C@H]3CNC[C@H]32)cnc1Cl | 133 |

Go through the items and report each one's Activity.
1. COc1cncc(N2C[C@@H]3CN[C@@H]3C2)c1
2. COc1cc(N2C[C@H]3CNC[C@H]32)cnc1Br
3. Cc1ncc(N2C[C@H]3CNC[C@H]32)cc1C#N

Reply:
1. 55
2. 118
3. 128

---

Kindly state pEC50 for each of the entries shown.
biological target: Neuronal acetylcholine receptor; alpha4/beta2 (Homo sapiens, UniProt P17787+P43681); assay: Agonist activity at recombinant human alpha-4-beta-2 nAChR expressed in HEK293 cells assessed as induction of calcium influx by FLIPR assay; format: functional, cell-based; settings: read-out: EC50
One number for each entry, as −log10 of the molar value.

Would you please look over these solved cases?
| Smiles structure | Test system | pEC50 |
| --- | --- | --- |
| Cc1cncc(N2C[C@@H]3CN[C@@H]3C2)c1 | Neuronal acetylcholine receptor; alpha4/beta2 (Homo sapiens, UniProt P17787+P43681) | 4.40 |
| Cc1ncc(N2C[C@@H]3CNC[C@@H]32)cc1C#N | Neuronal acetylcholine receptor; alpha4/beta2 (Homo sapiens, UniProt P17787+P43681) | 6.30 |
| Clc1cc(N2C[C@@H]3CNC[C@@H]32)cnc1Cl | Neuronal acetylcholine receptor; alpha4/beta2 (Homo sapiens, UniProt P17787+P43681) | 6.05 |
| N#Cc1cc(N2C[C@@H]3CN[C@@H]3C2)cnc1Br | Neuronal acetylcholine receptor; alpha4/beta2 (Homo sapiens, UniProt P17787+P43681) | 6.10 |
| N#Cc1cncc(N2C[C@H]3CN[C@H]3C2)c1 | Neuronal acetylcholine receptor; alpha4/beta2 (Homo sapiens, UniProt P17787+P43681) | 6.22 |
| Cc1cc(N2C[C@@H]3CN[C@@H]3C2)cnc1C | Neuronal acetylcholine receptor; alpha4/beta2 (Homo sapiens, UniProt P17787+P43681) | 5.92 |
| Clc1cc(N2C[C@H]3CNC[C@H]32)cnc1Cl | Neuronal acetylcholine receptor; alpha4/beta2 (Homo sapiens, UniProt P17787+P43681) | 6.52 |
| Cc1ncc(N2C[C@H]3CNC[C@H]32)cc1C#N | Neuronal acetylcholine receptor; alpha4/beta2 (Homo sapiens, UniProt P17787+P43681) | 5.41 |

Go through the items and report each one's pEC50.
1. c1cncc(N2C[C@@H]3CN[C@@H]3C2)c1
2. Clc1cc(N2C[C@H]3CN[C@H]3C2)cnc1Cl
3. NC(=O)c1cc(N2C[C@H]3CNC[C@H]32)cnc1Br
4. COc1cc(N2C[C@H]3CN[C@H]3C2)cnc1Br
5. Clc1ccc(N2C[C@@H]3CNC[C@@H]32)cn1
6. Brc1cc(N2C[C@@H]3CN[C@@H]3C2)cnc1Br

Reply:
1: 5.80; 2: 6.40; 3: 5.96; 4: 6.70; 5: 6.52; 6: 5.92

Go through the items and report each one's pEC50.
1. N=C(NO)c1cncc(N2C[C@H]3CNC[C@H]32)c1
2. Clc1cncc(N2C[C@@H]3CN[C@@H]3C2)c1
3. COc1cncc(N2C[C@H]3CN[C@H]3C2)c1
4. COc1cc(N2C[C@H]3CNC[C@H]32)cnc1Br
5. c1cncc(N2C[C@H]3CN[C@H]3C2)c1
6. Cc1ncc(N2C[C@@H]3CN[C@@H]3C2)cc1C#N

Reply:
1. 5.14
2. 4.94
3. 6.00
4. 6.05
5. 6.52
6. 6.10

Go through the items and report each one's pEC50.
1. c1cncc(N2C[C@@H]3CNC[C@@H]32)c1
2. Brc1cncc(N2C[C@@H]3CN[C@@H]3C2)c1
3. C#Cc1cncc(N2C[C@H]3CNC[C@H]32)c1

Reply:
1. 5.55
2. 5.19
3. 4.87

---

target: Neuronal acetylcholine receptor; alpha3/beta4 (Homo sapiens, UniProt P30926+P32297); test: Agonist activity at recombinant human alpha-3-beta-4 nAChR expressed in HEK293 cells assessed as induction of calcium influx by FLIPR assay; assay type: functional, cell-based; details: read-out: EC50
pEC50: −log10 of the molar value.
Please mark true (1) if the recorded pEC50 is equal to or greater than 6, and false (0) if it falls below.

| Smiles structure | Discrete label |
| --- | --- |
| COc1cc(N2C[C@H]3CN[C@H]3C2)cnc1Br | true (1) |
| Clc1cc(N2C[C@@H]3CN[C@@H]3C2)cnc1Br | true (1) |
| Cc1cc(N2C[C@H]3CN[C@H]3C2)cnc1Cl | true (1) |
| Cc1cc(N2C[C@@H]3CN[C@@H]3C2)cnc1C | false (0) |
| c1cncc(N2C[C@H]3CNC[C@H]32)c1 | false (0) |
| NC(=O)c1cc(N2C[C@H]3CNC[C@H]32)cnc1Br | false (0) |
| Cc1cncc(N2C[C@@H]3CN[C@@H]3C2)c1 | false (0) |
| Cc1cncc(N2C[C@@H]3CNC[C@@H]32)c1 | false (0) |
| N#Cc1cncc(N2C[C@@H]3CN[C@@H]3C2)c1 | false (0) |
| N#Cc1cc(N2C[C@H]3CNC[C@H]32)cnc1Br | false (0) |

Ask: Is the recorded value of pEC50 equal to or greater than 6 for this compound? Brc1cncc(N2C[C@H]3CN[C@H]3C2)c1
Reply: true (1)

Ask: Is the recorded value of pEC50 equal to or greater than 6 for this compound? Cc1cc(N2C[C@@H]3CNC[C@@H]32)cnc1C
Reply: false (0)

Ask: Is the recorded value of pEC50 equal to or greater than 6 for this compound? Clc1cc(N2C[C@@H]3CNC[C@@H]32)cnc1Cl
Reply: false (0)

Ask: Is the recorded value of pEC50 equal to or greater than 6 for this compound? Cc1cc(N2C[C@H]3CNC[C@H]32)cnc1C
Reply: false (0)

Ask: Is the recorded value of pEC50 equal to or greater than 6 for this compound? Clc1ccc(N2C[C@@H]3CN[C@@H]3C2)cn1
Reply: true (1)

Ask: Is the recorded value of pEC50 equal to or greater than 6 for this compound? Brc1cncc(N2C[C@@H]3CN[C@@H]3C2)c1
Reply: false (0)

Ask: Is the recorded value of pEC50 equal to or greater than 6 for this compound? c1cncc(N2C[C@@H]3CN[C@@H]3C2)c1
Reply: false (0)

Ask: Is the recorded value of pEC50 equal to or greater than 6 for this compound? Cc1ncc(N2C[C@@H]3CNC[C@@H]32)cc1C#N
Reply: false (0)

Ask: Is the recorded value of pEC50 equal to or greater than 6 for this compound? Clc1cncc(N2C[C@H]3CNC[C@H]32)c1
Reply: false (0)

The reported measurements were obtained from ChEMBL document CHEMBL1137618.
